# System: E. faecalis strain MMH594
# test: MIC, 2-fold broth microdilution in BHI media (NCCLS)
# Assay type: cell-based, Enterococcus faecalis
# condition.notes: Enterococcus faecalis, E30 value is at its aqueous solubility limit, read-out: MIC
Please respond with reported MIC for every item in the list.
Answers are plain numbers, in µg/mL.

Here are 4 molecules together with their reported answers.
> print(dat)
                                   molecule  reported.metric  reading
1  O=C(NC(NC(=S)Nc1ccc([N+](=O)[O-])cc1)C(Cl)(Cl)Cl)c1cccc([N+](=O)[O-])c1 (stereo not drawn) [Compound E1]              MIC     31.3
2  CC(Oc1cccc(Cl)c1)C(=O)N/N=C/c1cc([N+](=O)[O-])ccc1O (stereo not drawn)              MIC      3.9
3  O=c1[nH]c2ccc(/N=C/c3cc(I)cc(I)c3O)cc2[nH]1              MIC     15.6
4  O=[N+]([O-])c1cc(O)ccc1/C=N/Nc1nc(NCc2ccccc2)nc(N2CCOCC2)n1              MIC     15.6

Below: the item to evaluate.
Enquiry: Indicate the recorded MIC value for this molecule: `O=C1c2ccccc2-c2ncnc3ccc(NC4CCCCC4)c1c23`
Return: 2

* * *

# Tested on: E. faecalis strain MMH594
# test: MIC, 2-fold broth microdilution in BHI media (NCCLS)
# Assay type: cell-based, Enterococcus faecalis
# condition.notes: Enterococcus faecalis, E30 value is at its aqueous solubility limit, read-out: MIC
Please respond with reported MIC for every item in the list.

Here are 3 compounds together with their reported answers.
> print(dat)
                                   compound  reported.metric      reading
1  CC1(C)C(C=C(Cl)Cl)C1C(=O)NCCCOC(=O)Nc1ccc(Cl)cc1 (stereo not shown)              MIC  > 125 µg/mL
2  c1ccc(-c2ccc(CN3CCN(c4ccccn4)CC3)cc2)cc1              MIC  > 125 µg/mL
3  O=C(CCN1C(=O)/C(=C2/SC(=S)N(CCC(=O)Nc3ccccc3C(=O)O)C2=O)SC1=S)Nc1ccccc1C(=O)O              MIC  > 125 µg/mL

Below: the item to evaluate.
Enquiry: Indicate the recorded MIC value for this compound: `COc1ccc(/C=C/C2=CCN(Cc3ccccc3)CC2)cc1`
Return: > 125 µg/mL

Where do these numbers come from? They come from patent US20170020900A1.
